- tested-system: EGFRL858R + T790M (Homo sapiens, UniProt P00533, L858R/T790M)
- Sequence (P00533 25-1210 T790M/L858R): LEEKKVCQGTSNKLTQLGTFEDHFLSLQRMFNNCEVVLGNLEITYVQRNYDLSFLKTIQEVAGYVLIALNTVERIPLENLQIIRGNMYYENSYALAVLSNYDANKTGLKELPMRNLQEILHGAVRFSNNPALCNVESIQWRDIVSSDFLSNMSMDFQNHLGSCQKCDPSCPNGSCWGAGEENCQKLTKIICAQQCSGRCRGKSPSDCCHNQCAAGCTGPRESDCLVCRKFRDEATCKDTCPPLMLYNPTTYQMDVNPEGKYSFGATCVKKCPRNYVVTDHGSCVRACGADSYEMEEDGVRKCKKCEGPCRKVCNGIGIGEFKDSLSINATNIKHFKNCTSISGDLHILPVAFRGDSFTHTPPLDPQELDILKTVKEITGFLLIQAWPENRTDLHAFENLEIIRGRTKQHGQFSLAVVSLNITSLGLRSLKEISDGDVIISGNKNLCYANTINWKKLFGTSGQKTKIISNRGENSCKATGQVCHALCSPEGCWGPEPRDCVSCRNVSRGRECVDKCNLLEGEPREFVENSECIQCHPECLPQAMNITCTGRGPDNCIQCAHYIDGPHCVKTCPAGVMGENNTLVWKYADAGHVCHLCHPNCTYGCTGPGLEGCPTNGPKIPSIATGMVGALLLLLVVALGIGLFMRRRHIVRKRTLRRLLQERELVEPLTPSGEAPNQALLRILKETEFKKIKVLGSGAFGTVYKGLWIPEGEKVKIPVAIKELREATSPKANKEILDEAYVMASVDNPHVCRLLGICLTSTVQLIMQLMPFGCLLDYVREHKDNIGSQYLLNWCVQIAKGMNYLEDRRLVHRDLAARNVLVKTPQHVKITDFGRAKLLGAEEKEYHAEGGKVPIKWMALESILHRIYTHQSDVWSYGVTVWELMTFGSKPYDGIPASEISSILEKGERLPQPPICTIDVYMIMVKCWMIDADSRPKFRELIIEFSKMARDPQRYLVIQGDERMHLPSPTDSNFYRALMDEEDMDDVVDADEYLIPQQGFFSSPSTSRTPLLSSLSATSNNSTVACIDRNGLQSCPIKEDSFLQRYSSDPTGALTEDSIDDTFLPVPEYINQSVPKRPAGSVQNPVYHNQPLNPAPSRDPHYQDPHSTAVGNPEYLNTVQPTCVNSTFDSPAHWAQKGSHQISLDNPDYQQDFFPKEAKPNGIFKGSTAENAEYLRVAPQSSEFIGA
- method: In vitro enzymatic activity assay (Z'-LYTE), EGFR L858R + T790M
- run-parameters: Z'-LYTE FRET peptide assay; read-out: EGFRL858R + T790M kinase activity (IC50)
Listed here: items and their measured IC50.

Below, 3 compounds whose answers are already recorded.
1. C=CC(=O)Nc1cccc(N2C(=O)N(C)Cc3cnc(Nc4ccc(N5CCCN(C)CC5)cc4OC)nc32)c1 [C-EGF17] | ≤ 0.01 µM
2. C=CC(=O)Nc1cccc(N2C(=O)N(C)Cc3cnc(Nc4ccc(N5CCC(N6CCN(C)CC6)CC5)cc4)nc32)c1 [Compound X003] | ≤ 0.01 µM
3. C=CC(=O)Nc1cccc(N2C(=O)N(C)Cc3cnc(Nc4ccc(N5CCCCC5)cc4)nc32)c1 [Compound X002] | ≤ 0.01 µM

Consider the compound C=CC(=O)Nc1ccc(F)c(N2C(=O)N(Cc3ccccc3)Cc3cnc(Nc4ccc(N5CCN(C)CC5)cc4OC)nc32)c1 [C-EGF41] and give its measured IC50.
≤ 0.01 µM

Consider the compound C=CC(=O)Nc1cccc(N2C(=O)N(c3ccc(OC)cc3)Cc3cnc(Nc4ccc(N5CCN(C)CC5)cc4OC)nc32)c1 [C-EGF25] and give its measured IC50.
≤ 0.01 µM

Consider the compound C=CC(=O)Nc1cccc(N2C(=O)N(C)Cc3cnc(Nc4ccc(N5CCN(C(C)=O)CC5)cc4OC)nc32)c1 [C-EGF20] and give its measured IC50.
≤ 0.01 µM

Consider the compound COc1cc(N2CCN(C)CC2)ccc1Nc1ncc2c(n1)N(c1cccc(N)c1)C(=O)N(C)C2 [C-EGF33] and give its measured IC50.
1 to 10 µM
